- target of assay: Neuronal acetylcholine receptor subunit alpha-7 (Homo sapiens)
- run description: Partial agonist activity at human alpha7 nAChR expressed in xenopus oocytes assessed as potentiation of PNU-120596-induced PAM-sensitive desensitization at 30 uM by two-electrode voltage clamp electrophysiology relative to acetylcholine
- Assay type: cell-based
quantity name: fold change (FC)

smiles representation | experimental result
CC[N+]1(CC)CCN(c2ccc3ccccc3c2)CC1 | 15.9
CC[N+]1(CC)CCN(c2cccc(O)c2)CC1 | 31.4
CC[N+]1(CC)CCN(c2ccc(C#N)cc2)CC1 | 68
CC[N+]1(CC)CCN(c2ccccc2Cl)CC1 | 36.6
CC[N+]1(CC)CCN(c2ccccc2C)CC1 | 16.4
CC[N+]1(CC)CCN(c2ccc(Cl)cc2)CC1 | 18.3
